System: corn plants (variety NK OCTET)
test: Reduced plant water use in corn (foliar spray, repeated weighing of pots)
Format: in vivo
study.conditions: Zea mays, 60 h, corn plants sprayed at 500 μM, cumulative total water use 0-2.5 DAA (sum of the time points) vs negative control, average of 6 pots, read-out: % WU Total 0 to 2.5 DAA
assay.readout: change in vivo at 500 µM (%)
Answers are plain numbers, in %.

Check out these entries, answers already filled in.
Challenge: Note change in vivo at 500 µM for the compound shown: CCCN1C(=O)CCc2cc(CNS(=O)(=O)c3c(F)cccc3F)ccc21
Response given: -8.2

Challenge: Give the reported change in vivo at 500 µM for this compound. CCCN1C(=O)CCc2cc(CNS(=O)(=O)CCCC(F)(F)F)ccc21
Response given: -12.7

Challenge: Report measured change in vivo at 500 µM; entry is CCCN1C(=O)CCc2cc(CNS(=O)(=O)c3cc(Cl)sc3Cl)ccc21
Response given: -9.3

Record change in vivo at 500 µM for all entries; do not skip any.
1. CCCN1C(=O)CCc2cc(CNS(=O)(=O)c3ccc(C)s3)ccc21
2. CCCN1C(=O)CCc2cc(CNS(=O)(=O)c3ccccc3F)ccc21
3. CCCN1C(=O)CCc2cc(CNS(=O)(=O)c3ccc(F)cc3F)ccc21
4. CCCN1C(=O)CCc2cc(CNS(=O)(=O)c3ccc4ccccc4c3)ccc21
5. CCCN1C(=O)CCc2cc(CNS(=O)(=O)/C=C/c3ccc(Br)cc3)ccc21

Response given:
1: -9; 2: -9.4; 3: -10.3; 4: -6.3; 5: -4.1

I have 3 compounds here; please give me change in vivo at 500 µM for each one.
1. CCCN1C(=O)CCc2cc(CNS(=O)(=O)CCC)ccc21
2. CCN1C(=O)CC(C)c2cc(CNS(=O)(=O)c3ccc(F)cc3F)ccc21 (centres unmarked)
3. CCCN1C(=O)CCc2cc(CNS(=O)(=O)c3ccsc3)ccc21

Response given:
1: -10.5; 2: -9.4; 3: -14.8

###

Please go through the items and note down their melting point.

Use these answered entries as a reference point.
Challenge: Give melting point for the following compound: CCCN1C(=O)CCc2cc(CNS(=O)(=O)c3ccc(Br)cc3)ccc21
Response given: 143 to 145 °C

Challenge: Specify melting point for CCCN1C(=O)CCc2cc(CNS(=O)(=O)c3ccccc3F)ccc21 and stop.
Response given: 155 to 156 °C

Now take the following compound into account.
Challenge: Fill in melting point for record CCCN1C(=O)CCc2cc(CNS(=O)(=O)c3ccc(F)cc3)ccc21
Response given: 143 to 144 °C
